tested on: c-Src; test: phosphorylation enrichment, bacterial display (enrichment ratio); higher = better substrate or ligand; peptides without Tyr show the background;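 note: 11-residue human phosphosite peptides and single-mutation variants displayed on the E. coli surface, counted by deep sequencing, each peptide's frequency after selection divided by its frequency in the unselected input library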;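 note: frequency after pTyr selection over input frequency; kinase dosed for 20-30% of maximal phosphorylation in three min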
Metric name: phosphorylation enrichment
Lab note: jot the number down without any unit.

Lookup: Give phosphorylation enrichment for the following sequence: SAEEDYIADAK [KCNT1_Y876_M877I]
Found: 0.608

Lookup: Give phosphorylation enrichment for the following sequence: RRKRAYVEIEY [MAK16_Y282_Q277R]
Found: 0.999

Lookup: Give phosphorylation enrichment for the following sequence: SSSNPYSTVTV [ACTN2_Y599_M604V]
Found: 1.29

Lookup: Give phosphorylation enrichment for the following sequence: DRLAVYIDRVR [LMNA_Y45]
Found: 0.359
